Record form. Attribute: TGI. Fill in for each entry.
system: OVCAR-5 ovarian; assay: NCI tumour cell line growth inhibition, 48 h

Some solved entries appear below for comparison.
* Nc1ncnc2c1sc1nc3ccccc3n12 | > 100 µM
* Cc1cn([C@@H]2C[C@@H]2CO)c(=O)[nH]c1=O | > 100 µM
* CCN1C(=S)N(c2ccccc2)C2NC(=S)N(/N=C/C=C/c3ccccc3OC)C21 (centres undefined) | > 100 µM
* CC(=O)O[C@H]1C(=O)[C@@]2(C)C(C(OC(=O)c3ccccc3)[C@]3(O)C[C@H](OC(=O)C(OC(=O)CCCC(=O)NCCCN(C)C)C(NC(=O)c4ccccc4)c4ccccc4)C(C)=C1C3(C)C)C1(OC(C)=O)COC1C[C@@H]2O (some centres undefined) | 13.1 µM
* Nc1nccc(-c2c(-c3ccc(F)cc3)ncn2C2CCNCC2)n1 | > 25 µM

I'm hoping you can list TGI for every compound here, please.
1. Fc1cccc(COc2ccc(Nc3ncnc4sc(-c5cccs5)cc34)cc2Cl)c1
2. CN(C)CCCN1C(=S)N(CCCN(C)C)c2c3ccccc3nc3c([N+](=O)[O-])ccc1c23
3. O=C(CC(Cl)=C(Cl)Cl)Nc1ccccc1
4. CCC(C)CCOC(=O)c1ccc(N=Cc2ccc(C=Nc3ccc(C(=O)OCCC(C)CC)cc3)cc2)cc1 (centres undefined)

Marked response:
1: > 25 µM; 2: 39.5 µM; 3: > 100 µM; 4: > 100 µM
